System: Anti-HBsAg antibody(g)
Assay: Release of fluorescently labeled switching peptide from immobilized antibody on antigen binding (Table 4)
Parameters: species or system goat
Settings: after treatment with antigen HBsAg
property-measured: fluorescence intensity at the bottom of the plate decreased by (%)
Write the number in % without appending the unit.

Req: Name the recorded fluorescence intensity at the bottom of the plate decreased by for VYYCFQGSHVPFTK [L2, VYYCF QGSHV PFTK] .
Resp: 35.2

Req: Name the recorded fluorescence intensity at the bottom of the plate decreased by for VYYCAREPTGTGIYFDVWGK [H2, VYYCA REPTG TGIYF DVWGK] .
Resp: 63.9

Req: Name the recorded fluorescence intensity at the bottom of the plate decreased by for TYLEWYPQKPGQSPKLLIYK [L1, TYLEW YPQKP GQSPK LLIYK] .
Resp: 48.7

Req: Name the recorded fluorescence intensity at the bottom of the plate decreased by for SYWIHWVKQRPGQGLEWIGE [H1, SYWIH WVKQR PGQGL EWIGE] .
Resp: 41.1

FYI, the data here is from patent US20250341517A1.
